# ASSAYED_SYSTEM: T1, human TF-His (human, UniProt P13726 33-251)
# T1 construct: range 33-251; Recombinant extracellular segment expressed in HEK293-EBNA cells and purified on a nickel column; also called h.TF-His; h; TF-his; not shown: His tag from vector pTT5-His
# PROTOCOL: BLI (ForteBio Octet), antibody on ProA sensor, TF-His as analyte

- BINDER: "22F11H5-hz1 (antibody, human IgG1, kappa, V domains shown, Humanized IgG1 kappa) VH: QVQLVQSGAEVKQPGASVKVSCKASGYTFTTYWMHWVRQAPGQGLEWMGMIDPSDSYTTYAQKFQGRVTLTVDTSTSTAYMELSSLRSEDTAVYYCARGSGPGLFAYWGQGTLVTVSS VL: DIQETQSPSSLSASVGDRVTITCRASQDIRNYLNWYQQKPGKAPKLLIYHTSRLQSGVPSRFSGSGSGTDYTLTISSLQPEDFATYYCQQGNMPPYTFGQGTKVEIKR"
  UNITS_OF_MEASURE: "nM"
  Kd: 9.8
- BINDER: "2B12B10-hz1 (antibody, human IgG1, kappa, V domains shown, Humanized IgG1 kappa) VH: EVQLVESGGGLVQPGGSLRLSCAASGFAFSDSGMHWVRQAPGKGLEWVAYISRDSNTIYYADSVKGRFTISRDNAKNSLYLQMNSLRAEDTAVYYCGRRYYGDYFDYWGQGTLVTVSS VL: DIVLTQSPATLSLSPGERATLSCRASQRVTNYLHWYQQKPGQSPRLLIKYASQSISGIPARFSGSGSGTDFTLTISSLEPEDFAVYFCQQSYNWPLTFGQGTKVEIKR"
  UNITS_OF_MEASURE: "nM"
  Kd: 13.8
- BINDER: "30G11B7-hz1 (antibody, human IgG1, kappa, V domains shown, Humanized IgG1 kappa) VH: EVQLVESGGGLVKPGGSLRLSCAASGFTFSDYGMFWVRQAPGKGLEWVAYISRGSTTIYYADSVKGRFTISRDNAKNSLYLQMNSLRAEDTAVYFCTRRYYGDYFDYWGQGTLVTVSS VL: EIVLTQSPDFQSVTPKEKVTITCRASQSISNYLHWYQQKPDQSPKLLIKYASQSISGVPSRFSGSGSGTDFTLTINSLEAEDAATYFCQQSYNWPLTFGQGTKVEIKR"
  UNITS_OF_MEASURE: "nM"
  Kd: 25.8
- BINDER: "27H8H3-hz1 (antibody, human IgG1, kappa, V domains shown, Humanized IgG1 kappa) VH: QVQLVQSGAEVKKPGASVKVSCKASGYTFTTYWMHWVRQAPGQGLEWMGMIDPSDSYTSYAQKFQGRVTLTVDTSTSTAYMELSSLRSEDTAVYYCTRGSGPGLFAYWGQGTLVTVSS VL: DIQETQSPSSLSASVGDRVTITCRASQGISNYLNWYQQKPGKAPKLLIYHTSRLHSGVPSRFSGSVSGTDFTLTISSLQPEDFATYFCQQGNTLPYTFGQGTKVEIKR"
  UNITS_OF_MEASURE: "nM"
  Kd: 42.5
